Data provenance is ChEMBL document CHEMBL1201862.

system: EKVX; experiment: NCI tumour cell line growth inhibition, 48 h
Calls of active or inactive are those of the source. Rule as the data show it: active = GI50 up to about 1.1 µM and inactive = higher.
Result category, one only: label 1 for active, label 0 for inactive

## Task // param item: `C[N+](C)(C)/C=N\c1cccc2nsnc12` ; yields the recorded call
## Result label 0

## Task What do you get for C[N+]1(C)CCCC1C(=O)[O-] (stereo not given) ?
## Result label 0

## Task What do you get for `CCOC(=O)C1=C(O)C(=O)c2c(OC)ccc(OC)c2C1=O` ?
## Result label 0

## Task What do you get for `Cc1nc(-c2ccc([N+](=O)[O-])cc2)cn2c1nc1ccccc12` ?
## Result label 0

## Task What do you get for `COc1cc(/C=C2\N=C(c3ccccc3)N(c3nc4cc(C)c(C)cc4s3)C2=O)cc(OC)c1OC` ?
## Result label 0

## Task What do you get for COc1cc(COC(=O)N2CCCCC2C(=O)O)c([N+](=O)[O-])cc1OC (stereo not given) ?
## Result label 0

## Task What do you get for `CN(C)CCNc1ccc2c(=O)n(CCN(C)C)c(=O)n3c4ccc(N)cc4c(=O)c1c23` ?
## Result label 1

## Task What do you get for `CCOC(=O)NC(=O)c1cn(-c2ccc(CCOC(=O)CCCCCCCCC(=O)OCCc3ccc(-n4cc(C(=O)NC(=O)OCC)c(=O)[nH]c4=O)cc3)cc2)c(=O)[nH]c1=O` ?
## Result label 0

## Task What do you get for `O=C1/C(=C/c2ccco2)N=C(c2ccccc2)N1c1cc2cc(Sc3ccccc3)ccc2[nH]1` ?
## Result label 0

## Task What do you get for CCOP(=O)(OCC)OC1C=CC2CCC1C2 (stereo not given) ?
## Result label 0

----------
system: BT-549; test: NCI tumour cell line growth inhibition, 48 h
Active and inactive are the calls of the source. Cut-off read from the data, not from the text of the source: active = GI50 up to about 1.1 µM and inactive = higher.
Result category, one only: yes (active), no (inactive)

## Task // param item: `COc1ccc(SCc2cc(OC)ccc2OC)cc1` ; yields the recorded call
## Result no

## Task What do you get for `Cc1cc2c(C(C)C)c(O)c(O)c(/C=N/c3cc(C(F)(F)F)ccc3Cl)c2c(O)c1-c1c(C)cc2c(C(C)C)c(O)c(O)c(/C=N/c3cc(C(F)(F)F)ccc3Cl)c2c1O` ?
## Result no

## Task What do you get for `Cc1c(C)c2c(c(N)c1C#N)C(=O)N(CCN1CCNCC1)C2=O` ?
## Result no

## Task What do you get for O=C(c1ccccc1)c1ccc2c(c1)nc1n2C(c2c(Cl)cccc2Cl)SC1 (stereo not drawn) ?
## Result no

## Task What do you get for `CN(C)c1ccc2c(SCC(=O)OCC(=O)[C@@]3(O)CC[C@H]4[C@@H]5CCC6=CC(=O)C=C[C@]6(C)[C@H]5C(=O)C[C@@]43C)c3ccc(N(C)C)cc3nc2c1` ?
## Result no

## Task What do you get for `Brc1c(C#CCC(c2ccccc2)(c2ccccc2)c2ccccc2)ccc(C#CCC(c2ccccc2)(c2ccccc2)c2ccccc2)c1Br` ?
## Result no

## Task What do you get for `CCOC(=O)/C=C(/C)Nc1nc2c(c(C(=O)OC)c1C#N)CCCC2` ?
## Result no

## Task What do you get for `COc1c2c(c3c(c1CCC(=O)O)OC(C)(C)C=C3)OC(C)(C)C=C2` ?
## Result no

## Task What do you get for `CSc1c(C(=O)Nc2ccccc2)c(N)n(N)c(=O)c1C#N` ?
## Result no

## Task What do you get for O=C1c2ccccc2C(=O)c2c(NCC3CO3)cccc21 (stereo not drawn) ?
## Result no

## Task What do you get for O=c1nc2n(cc1/C=C\Br)C1CC(O)C(CO2)O1 (stereo not drawn) ?
## Result no

## Task What do you get for `Clc1ccc(NCc2nnc(CCCCCCCCc3nnc(CNc4ccc(Cl)cc4)o3)o2)cc1` ?
## Result no

## Task What do you get for `CCOC(=O)Cc1nnc2c(-c3ccccc3)nc3ccccc3n12` ?
## Result no

## Task What do you get for C[N+](C)(C)C(C1=CCCC1=O)c1ccccc1 (stereo not drawn) ?
## Result no

## Task What do you get for Cc1ccc(C)c(NC(=O)C(=O)C2C(=O)C3=C(CC2(C)C)Nc2ccccc2S3)c1 (stereo not drawn) ?
## Result no

## Task What do you get for `Nc1ccc2c(c1)C(=O)c1ccc(F)cc1-2` ?
## Result no

## Task What do you get for `CC1=NN(c2nc(N)nc(COc3ccc(N)cc3)n2)C(C)(C)C1` ?
## Result no

## Task What do you get for `CCOC(=O)/C=C(/C(=O)OCC)n1ccc(=O)n(Cc2cn(COCCOC(C)=O)nn2)c1=O` ?
## Result no

## Task What do you get for O=C1c2cc([N+](=O)[O-])ccc2NC2C(O)c3ccccc3N12 (stereo not drawn) ?
## Result no

## Task What do you get for COC(=O)/C=C1/CCC(C)(C(=O)NS(=O)(=O)c2ccc(C)cc2)C1(C)C (stereo not drawn) ?
## Result no

## Task What do you get for `CCN(CC)c1ccc2cc(C(=O)Nc3ccc(C)cc3)c(=N)oc2c1` ?
## Result no

## Task What do you get for `Cc1ccccc1C(=N)c1ccccc1Cc1cccc2ccccc12` ?
## Result no

## Task What do you get for CC1C2CC(C(S(=O)(=O)O)C2=O)C1(C)C (stereo not drawn) ?
## Result no

## Task What do you get for `COC(=O)CC[C@@H](C)[C@H]1CC[C@H]2[C@@H]3CC[C@@H]4C[C@H](O)CC[C@]4(C)[C@H]3CC[C@]12C` ?
## Result no

## Task What do you get for `CC(=O)Nc1ccc(-c2nc3ccccc3s2)cc1C` ?
## Result no

## Task What do you get for `CN(C)CCNc1ccc2c(=O)n(CCN(C)C)c(=O)n3c4ccc(N)cc4c(=O)c1c23` ?
## Result yes

## Task What do you get for `Nc1cccc(-c2cc(O)c3cc4c(cc3n2)OCO4)c1` ?
## Result no

## Task What do you get for CC1=C(C(=O)OCCc2ccc([N+](=O)[O-])cc2)C(c2ccccc2C(F)(F)F)C(C(=O)OC(C)C)=C(C)N1 (stereo not drawn) ?
## Result no

## Task What do you get for `Oc1cccc(Nc2cc(O)nc(O)n2)c1` ?
## Result no

## Task What do you get for Clc1ccc(C(OCn2ccnc2)c2nc3ccccc3[nH]2)c(Cl)c1 (stereo not drawn) ?
## Result no

## Task What do you get for `NS(=O)(=O)c1ccc(Nc2c3ccccc3nc3c(C(=O)NCCO)cccc23)cc1` ?
## Result yes

## Task What do you get for `Fc1ccc(/N=C/C=C/Nc2ccc(F)cc2)cc1` ?
## Result no

## Task What do you get for `COC(=O)[C@@H]1[C@H]2CC[C@]3(C)[C@@H](OC(C)=O)CC[C@H]3[C@@H]2CC[C@H]1C(C)=O` ?
## Result no
